FYI, the data here is from ChEMBL document CHEMBL3433997.

Would you kindly list inhibition for each of these molecules?
# ASSAY_SYSTEM: Glucose transporter (Leishmania mexicana)
# TEST: ST_JUDE_LEISH: Cytotoxicity at 2uM final concentration against transgenic Leishmania Mexicana promastigotes LmGT2 that are glucose transport deficient and complemented with the L. Mexicana glucose transporter 2. Activity is measured by DNA content using SYBR green in vitro
# Format: functional
Only the number, expressed in %, is required.

Request: Field: inhibition (Glucose transporter (Leishmania mexicana)). Entry: `COc1cc(NC(=O)c2sc(-c3ccc(Cl)cc3)cc2NC(=O)c2cccc(N(C)C)c2)ccc1OCCN1CCCC1`
Response: 0.53

Request: Field: inhibition (Glucose transporter (Leishmania mexicana)). Entry: `COc1ccc(CNc2ccnc(-n3cnc4cc(C)c(C)cc43)n2)cc1Cl`
Response: 2.53

Request: Field: inhibition (Glucose transporter (Leishmania mexicana)). Entry: `Oc1cccc(Nc2nc(NCc3ccco3)c3ccccc3n2)c1`
Response: 4.1

Request: Field: inhibition (Glucose transporter (Leishmania mexicana)). Entry: C=CCOC(=O)N1CCC(CNCc2cccc(-c3cccc(-c4nc5cccc(C)c5[nH]4)c3)c2)C1 (stereo not given)
Response: 7.29

Request: Field: inhibition (Glucose transporter (Leishmania mexicana)). Entry: `Cc1cc(NCCC(=O)NCCOc2ccccc2)nc(Nc2ccccc2)n1`
Response: 0.05

Request: Field: inhibition (Glucose transporter (Leishmania mexicana)). Entry: `O=C(NC1CC1)c1cnc(N2CCC(OCc3ccccc3)CC2)c(Cl)c1`
Response: -1.03

Request: Field: inhibition (Glucose transporter (Leishmania mexicana)). Entry: CC1CN(S(=O)(=O)c2ccc(NC(=O)c3cc(-c4ccccc4O)n[nH]3)cc2)CC(C)O1 (stereo not given)
Response: 4.67

Request: Field: inhibition (Glucose transporter (Leishmania mexicana)). Entry: `O=C(Nc1ccc(-c2cccc(-c3nc4cc(C(F)(F)F)ccc4[nH]3)c2)cc1)c1cccnc1`
Response: -1.11

Request: Field: inhibition (Glucose transporter (Leishmania mexicana)). Entry: `CS(=O)(=O)CCNCc1cccc(-c2cc3c(Nc4ccc(OCc5ccccc5)cc4)ncnc3cn2)c1`
Response: 6.71

Request: Field: inhibition (Glucose transporter (Leishmania mexicana)). Entry: `O=C(Nc1ccc(F)c(F)c1)c1ccc(CN2CCCN(Cc3cccc(F)c3)CC2)cc1`
Response: 1.29

Request: Field: inhibition (Glucose transporter (Leishmania mexicana)). Entry: `N#Cc1ccccc1C(=O)N(Cc1cncn1Cc1cccc(F)c1)CC1CC1`
Response: 8.88

Request: Field: inhibition (Glucose transporter (Leishmania mexicana)). Entry: `O=C(Cc1ccc(NC(=O)c2ccc(O)c(-c3ccc(Cl)c(Cl)c3)c2)cc1)NCCc1ccc(Cl)c(Cl)c1`
Response: -0.6

Request: Field: inhibition (Glucose transporter (Leishmania mexicana)). Entry: COc1ccc(NC(=O)C2c3ccccc3C(=O)N(C3CCCC3)C2c2cccs2)cc1OC (stereo not given)
Response: 0.45

Request: Field: inhibition (Glucose transporter (Leishmania mexicana)). Entry: Cc1cc(-c2ccc(NC(=O)c3coc4ccc(N5CC(C)N(C)C(C)C5)cc34)cc2C)cc(C)n1 (stereo not given)
Response: 1.55

Request: Field: inhibition (Glucose transporter (Leishmania mexicana)). Entry: `COc1cc(Nc2ncc3c(C)nc(-c4cccc(Nc5ccc(CN6CCS(=O)(=O)CC6)cc5)c4)n3n2)cc(OC)c1OC`
Response: 3.49

Request: Field: inhibition (Glucose transporter (Leishmania mexicana)). Entry: `COc1ccc(CCn2c(=N)c(C(=O)NCc3ccc(C)cc3)cc3c(=O)n4ccccc4nc32)cc1`
Response: 3.95

Request: Field: inhibition (Glucose transporter (Leishmania mexicana)). Entry: `COc1cc(Cc2cnc(N)nc2N)cc(OCCCCCC(=O)O)c1OC`
Response: 5.12

Request: Field: inhibition (Glucose transporter (Leishmania mexicana)). Entry: `Cc1cc(N2Cc3ccccc3C2)nc(Nc2ccc(S(=O)(=O)N3CCOCC3)cc2)n1`
Response: 1.21

Request: Field: inhibition (Glucose transporter (Leishmania mexicana)). Entry: `O=C(Nc1ccc(C(F)(F)F)cc1)Nc1cccc([N+](=O)[O-])c1`
Response: 3.51

Request: Field: inhibition (Glucose transporter (Leishmania mexicana)). Entry: `N#Cc1ccc(NC(=O)c2ccc(Cc3ccc4c(c3)CCN(C3CCC3)CC4)cn2)cc1`
Response: 10.4

Request: Field: inhibition (Glucose transporter (Leishmania mexicana)). Entry: `C=CCn1c(C)cc(C(=O)COc2ccc(S(=O)(=O)N3CCOCC3)cc2[N+](=O)[O-])c1C`
Response: 0.84

Request: Field: inhibition (Glucose transporter (Leishmania mexicana)). Entry: `Nc1nc(N)c2c(ccc3nn(Cc4ccccc4)cc32)n1`
Response: -0.15

Request: Field: inhibition (Glucose transporter (Leishmania mexicana)). Entry: CCCCN1C(=O)C2CC(=O)CC(C3CCCCC3)C2C1=O (stereo not given)
Response: 2.77

Request: Field: inhibition (Glucose transporter (Leishmania mexicana)). Entry: `Cn1cccc1C(=O)Nc1cccc(-c2nn3ccccc3c2-c2ccnc(Nc3ccc4c(c3)OCCO4)n2)c1`
Response: -1.17

Request: Field: inhibition (Glucose transporter (Leishmania mexicana)). Entry: `CC(C)(C)c1cc(CN2CCN(Cc3ccccc3)CC2)cc(C(C)(C)C)c1O`
Response: 2.7

Request: Field: inhibition (Glucose transporter (Leishmania mexicana)). Entry: `COCCSc1nc2scc(C)c2c(=O)n1Cc1cccc(OC)c1`
Response: 4.9

Request: Field: inhibition (Glucose transporter (Leishmania mexicana)). Entry: `COCCNCc1cccc(-c2ccc3c(Nc4ccc(Oc5cccnc5)cc4)ccnc3c2)c1`
Response: 2.93

Request: Field: inhibition (Glucose transporter (Leishmania mexicana)). Entry: O=C(c1ccc(Cl)c(Cl)c1)N1CCc2c([nH]c3ccccc23)C1CN1CCCC1 (stereo not given)
Response: 3.77

Request: Field: inhibition (Glucose transporter (Leishmania mexicana)). Entry: O=C(Nc1ccc(F)c(C(F)(F)F)c1)NC1CCN(CCCCCNC(=O)C2CC2c2ccc(Cl)c(Cl)c2)CC1 (stereo not given)
Response: 4.44

Request: Field: inhibition (Glucose transporter (Leishmania mexicana)). Entry: CN(CCC1CCN(C(=O)/C=C/c2ccc(Cl)c(Cl)c2)CC1)C1CCC(c2c[nH]c3ccccc23)CC1 (stereo not given)
Response: 3.97
